Source listed as ChEMBL document CHEMBL1128455.

Biological target: UniProtKB P25099
Sequence (P25099 whole entry): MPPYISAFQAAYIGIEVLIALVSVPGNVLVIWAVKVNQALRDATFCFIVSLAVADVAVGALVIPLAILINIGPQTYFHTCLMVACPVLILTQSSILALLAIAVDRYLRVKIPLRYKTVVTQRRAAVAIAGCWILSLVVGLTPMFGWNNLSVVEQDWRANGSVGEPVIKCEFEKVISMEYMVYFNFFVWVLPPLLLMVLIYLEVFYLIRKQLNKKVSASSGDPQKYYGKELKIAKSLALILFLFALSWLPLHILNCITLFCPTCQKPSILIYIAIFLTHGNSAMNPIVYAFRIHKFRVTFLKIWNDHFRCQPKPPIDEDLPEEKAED
Catalogue of compounds with associated log10 Ki
Hi team, quick reminder: these entries are log10 of Ki (µM).

Consider the worked cases shown below.
- COMPOUND: "OC[C@@H]1C[C@@H](O)[C@H](n2cnc3c(NC4CCCC4)ncnc32)O1"
  ENDPOINT VALUE: -0.96
- COMPOUND: "C[C@H]1OC(n2cnc3c(NC4CCCC4)ncnc32)[C@H](O)[C@@H]1O (stereo partly specified)"
  ENDPOINT VALUE: -1.15
- COMPOUND: "C[C@H](Cc1ccccc1)Nc1ncnc2c1ncn2C1CC(O)C(CO)O1 (stereo partly specified)"
  ENDPOINT VALUE: 0.93
- COMPOUND: "C[C@@H](Cc1ccccc1)Nc1ncnc2c1ncn2[C@@H]1O[C@H](CO)C[C@H]1O"
  ENDPOINT VALUE: 0.92
- COMPOUND: "C[C@H](Cc1ccccc1)Nc1ncnc2c1ncn2[C@@H]1O[C@H](CO)C[C@H]1O"
  ENDPOINT VALUE: -0.46

Note log10 Ki for the compound shown: C[C@H](Cc1ccccc1)Nc1ncnc2c1ncn2C1O[C@H](C)[C@@H](O)[C@H]1O (stereo partly specified)
-0.52

For OC[C@H]1O[C@@H](n2cnc3c(NC4CCCCC4)ncnc32)C[C@@H]1O , write its log10 Ki.
0.95

Report log10 Ki, nothing else, for this compound: OC[C@@H]1C[C@@H](O)[C@H](n2cnc3c(NC4CCCCC4)ncnc32)O1
-0.51

Check the records and state log10 Ki for Cn1cnc2c(N)ncnc21
1.10

Note down log10 Ki recorded for C[C@H]1O[C@@H](n2cnc3c(N)ncnc32)[C@H](O)[C@@H]1O [5'-Deoxyadenosine]
0.26

For the compound OC[C@H]1O[C@@H](n2cnc3c(NC4CCCC4)ncnc32)C[C@@H]1O , give its reported log10 Ki.
0.27
